- measurement_target: T1, mouse α4β7 integrin on TK1 cells (mouse, UniProt Q00651 41-1039; P26011 20-806)
- T1 construct: whole, on cells; also called α4β7 cell (Mu); Cell Adhesion α4β7 Mouse
- T1 sequence (Q00651 41-1039, chain 1 of 2): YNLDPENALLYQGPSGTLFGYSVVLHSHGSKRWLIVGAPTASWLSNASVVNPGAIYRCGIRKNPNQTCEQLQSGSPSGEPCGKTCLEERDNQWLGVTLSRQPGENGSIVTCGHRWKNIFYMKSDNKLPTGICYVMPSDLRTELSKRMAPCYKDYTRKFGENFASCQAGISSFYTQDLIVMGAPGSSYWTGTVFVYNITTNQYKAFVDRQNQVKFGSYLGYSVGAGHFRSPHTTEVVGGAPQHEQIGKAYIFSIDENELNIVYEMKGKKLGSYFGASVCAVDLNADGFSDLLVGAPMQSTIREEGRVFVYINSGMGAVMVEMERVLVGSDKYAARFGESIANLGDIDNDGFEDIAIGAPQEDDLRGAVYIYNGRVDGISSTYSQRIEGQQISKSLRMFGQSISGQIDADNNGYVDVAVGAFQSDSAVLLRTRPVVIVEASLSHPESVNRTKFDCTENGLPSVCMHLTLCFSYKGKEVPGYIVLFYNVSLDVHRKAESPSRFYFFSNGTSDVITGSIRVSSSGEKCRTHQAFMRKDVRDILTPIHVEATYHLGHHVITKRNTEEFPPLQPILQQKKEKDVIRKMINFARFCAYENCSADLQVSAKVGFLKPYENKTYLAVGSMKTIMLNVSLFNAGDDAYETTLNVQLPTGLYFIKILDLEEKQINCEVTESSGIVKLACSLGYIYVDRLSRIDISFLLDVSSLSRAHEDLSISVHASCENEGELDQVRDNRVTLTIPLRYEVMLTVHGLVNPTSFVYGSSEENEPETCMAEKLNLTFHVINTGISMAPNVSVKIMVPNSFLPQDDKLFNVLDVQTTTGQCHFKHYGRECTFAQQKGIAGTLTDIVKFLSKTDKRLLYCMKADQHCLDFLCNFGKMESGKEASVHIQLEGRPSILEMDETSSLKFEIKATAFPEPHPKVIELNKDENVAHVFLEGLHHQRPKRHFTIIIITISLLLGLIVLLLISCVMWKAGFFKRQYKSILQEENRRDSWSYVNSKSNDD
- T1 sequence (P26011 20-806, chain 2 of 2): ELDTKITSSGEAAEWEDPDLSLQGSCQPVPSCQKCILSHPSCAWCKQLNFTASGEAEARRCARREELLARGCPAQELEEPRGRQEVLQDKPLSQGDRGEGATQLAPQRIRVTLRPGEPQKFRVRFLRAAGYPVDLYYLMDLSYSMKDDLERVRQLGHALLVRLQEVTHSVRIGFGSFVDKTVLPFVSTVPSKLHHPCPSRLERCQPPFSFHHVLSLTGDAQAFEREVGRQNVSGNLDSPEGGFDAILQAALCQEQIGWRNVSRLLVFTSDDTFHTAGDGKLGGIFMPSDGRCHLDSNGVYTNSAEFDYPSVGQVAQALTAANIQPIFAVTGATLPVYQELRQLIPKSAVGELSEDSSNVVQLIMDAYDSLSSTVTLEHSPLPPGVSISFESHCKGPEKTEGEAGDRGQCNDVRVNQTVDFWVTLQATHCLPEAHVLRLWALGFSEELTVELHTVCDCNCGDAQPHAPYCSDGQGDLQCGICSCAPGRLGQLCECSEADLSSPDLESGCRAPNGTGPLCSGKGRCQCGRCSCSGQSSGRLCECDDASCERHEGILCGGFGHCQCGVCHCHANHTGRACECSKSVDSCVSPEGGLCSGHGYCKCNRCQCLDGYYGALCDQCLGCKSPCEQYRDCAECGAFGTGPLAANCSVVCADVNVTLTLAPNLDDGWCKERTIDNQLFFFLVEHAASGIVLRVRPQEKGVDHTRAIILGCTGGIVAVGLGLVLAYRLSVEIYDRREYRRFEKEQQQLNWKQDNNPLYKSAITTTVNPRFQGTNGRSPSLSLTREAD
- experimental_details: TK1 cell adhesion to MAdCAM-1
pIC50: −log10 of the molar value. Bridge positions count the residues as written; N and C are the ends. Square brackets hold non-standard residues; d marks the D form. Phe(4-COOH) = N[C@@H](Cc1ccc(C(=O)O)cc1)C(=O)O; Phe(4-tBu) = CC(C)(C)c1ccc(C[C@H](N)C(=O)O)cc1; NMeR = CN[C@@H](CCCNC(=N)N)C(=O)O; β3hE = N[C@@H](CCC(=O)O)CC(=O)O; NMeK = CN[C@@H](CCCCN)C(=O)O; Pen = CC(C)(S)[C@H](N)C(=O)O
Hi there, I'd appreciate the recorded pIC50 for every entry that follows.

Some solved cases for reference:
Ac-[Pen][NMeR]SDTL[Pen]WE[dK]-NH2 (disulfide 1-7; not fully specified (residue 10); printed as (Ac Pen N-Me-R S D T L Pen W E k NH2)2 DIG, disulfide Pen-Pen; also: homodimer via DIG linker, also called Peptide Z) [SEQ ID NO: 67]: ≥ 8.00
Ac-[Pen][NMeR]SDTL[Pen][Phe(4-tBu)][β3hE][dK]-NH2 (disulfide 1-7; not fully specified (residue 10); printed as (Ac Pen N-Me-R S D T L Pen F(4tBu) b-H-E k NH2)2 DIG, disulfide Pen-Pen; also: homodimer, two subunits joined by DIG linker, the second listing is the acetate salt) [SEQ ID NO: 132]: ≥ 8.00
Ac-[Pen][NMeR]SDTL[Pen][Phe(4-tBu)][β3hE]-OH (disulfide 1-7; SMILES CC(=O)N[C@@H]1C(=O)N(C)[C@@H](CCCNC(=N)N)C(=O)N[C@@H](CO)C(=O)N[C@@H](CC(=O)O)C(=O)N[C@@H]([C@@H](C)O)C(=O)N[C@@H](CC(C)C)C(=O)N[C@H](C(=O)N[C@@H](Cc2ccc(C(C)(C)C)cc2)C(=O)N[C@@H](CCC(=O)O)CC(=O)O)C(C)(C)SSC1(C)C) [SEQ ID NO: 152]: ≥ 8.00
Ac-[Pen][NMeR]SDTL[Pen][Phe(4-COOH)]E[NMeK]-NH2 (disulfide 1-7; not fully specified (residue 10); printed as (Ac Pen N-Me-R S D T L Pen F(4-COOH) E N-Me-K NH2)2 DIG, disulfide Pen-Pen; also: homodimer (…)2 DIG via Lys10 NZ) [SEQ ID NO: 147]: ≥ 8.00

# context switch: different binder, same pIC50
pIC50 measured on Ac-[Pen][NMeR]SDTL[Pen][Phe(4-COOH)][β3hE][NMeK]-NH2 (disulfide 1-7; not fully specified (residue 10); printed as (Ac Pen N-Me-R S D T L Pen F(4-COOH) b-H-E N-Me-K NH2)2 DIG, disulfide Pen-Pen; also: homodimer (…)2 DIG via Lys10 NZ) [SEQ ID NO: 148] = ≥ 8.00
